viability, T/C overview
Test system: 362531-283-R-J2-PDC complex spheroid viability;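 note: spheroids exposed to the agents for 7 days before readout; luminescence viability as percent of DMSO vehicle control wells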
Test: Anticancer human tumor 362531-283-R-J2-PDC patient-derived colon adenocarcinoma cell line growth inhibition [RAS]
Settings: second compound 0.003 µM; first compound 1 µM; hits give low values
measure name: viability, T/C (%)

INSERT INTO results (compound, unit_name, value) VALUES
  ('NC1c2ccccc2OC12CCN(c1cnc3c(N4CCCc5ncccc54)n[nH]c3n1)CC2 (stereo not drawn) + CCn1c(-c2cccnc2C(C)OC)c2c3cc(ccc31)N1CCOC(CC(NC(=O)C(C(C)C)N(C)C(=O)C3(F)CCN(C(=O)C#CC(C)(C)N(C)C)CC3)C(=O)N3CCCC(N3)C(=O)OCC(C)(C)C2)C1', '%', 66.8),
  ('CCN1CCN(Cc2ccc(Nc3ncc(F)c(-c4cc(F)c5nc(C)n(C(C)C)c5c4)n3)nc2)CC1 + CCn1c(-c2cccnc2C(C)OC)c2c3cc(ccc31)N1CCOC(CC(NC(=O)C(C(C)C)N(C)C(=O)C3(F)CCN(C(=O)C#CC(C)(C)N(C)C)CC3)C(=O)N3CCCC(N3)C(=O)OCC(C)(C)C2)C1', '%', 40.9),
  ('CC(=O)OC12COC1CC(O)C1(C)C(=O)C(O)C3=C(C)C(OC(=O)C(O)C(NC(=O)OC(C)(C)C)c4ccccc4)CC(O)(C(OC(=O)c4ccccc4)C21)C3(C)C (stereo not drawn) + CCn1c(-c2cc(N3CCN(C)CC3)cnc2C(C)OC)c2c3cc(ccc31)-c1csc(n1)CC(NC(=O)C1CC1C)C(=O)N1CCCC(N1)C(=O)OCC(C)(C)C2', '%', 13.6),
  ('C=CC(=O)N1CCN(c2nc(OCC3CCCN3C)nc3c(F)c(-c4nc(N)cc(C)c4C(F)(F)F)c(Cl)cc23)C(C)C1 (stereo not drawn) + CCn1c(-c2cccnc2C(C)OC)c2c3cc(ccc31)N1CCOC(CC(NC(=O)C(C(C)C)N(C)C(=O)C3(F)CCN(C(=O)C#CC(C)(C)N(C)C)CC3)C(=O)N3CCCC(N3)C(=O)OCC(C)(C)C2)C1', '%', 91.8),
  ('CC(Nc1ccc2c(c1)OCCn1cc(N3C(=O)OCC3C(F)F)nc1-2)C(N)=O (stereo not drawn) + CCn1c(-c2cccnc2C(C)OC)c2c3cc(ccc31)N1CCOC(CC(NC(=O)C(C(C)C)N(C)C(=O)C3(F)CCN(C(=O)C#CC(C)(C)N(C)C)CC3)C(=O)N3CCCC(N3)C(=O)OCC(C)(C)C2)C1', '%', 52.4),
  ('O=C(c1ccc(F)c(F)c1Nc1ccc(I)cc1F)N1CC(O)([C@@H]2CCCCN2)C1 + CCn1c(-c2cccnc2C(C)OC)c2c3cc(ccc31)N1CCOC(CC(NC(=O)C(C(C)C)N(C)C(=O)C3(F)CCN(C(=O)C#CC(C)(C)N(C)C)CC3)C(=O)N3CCCC(N3)C(=O)OCC(C)(C)C2)C1', '%', 18.4),
  ('O=C(c1ccc(F)c(F)c1Nc1ccc(I)cc1F)N1CC(O)([C@@H]2CCCCN2)C1 + CCn1c(-c2cc(N3CCN(C)CC3)cnc2C(C)OC)c2c3cc(ccc31)-c1csc(n1)CC(NC(=O)C1CC1C)C(=O)N1CCCC(N1)C(=O)OCC(C)(C)C2', '%', 20.3),
  ('CC1(O)CCCC1n1c(=O)c(C(F)F)cc2cnc(NC3CCN(S(C)(=O)=O)CC3)nc21 (stereo not drawn) + CCn1c(-c2cccnc2C(C)OC)c2c3cc(ccc31)N1CCOC(CC(NC(=O)C(C(C)C)N(C)C(=O)C3(F)CCN(C(=O)C#CC(C)(C)N(C)C)CC3)C(=O)N3CCCC(N3)C(=O)OCC(C)(C)C2)C1', '%', 72);
